- ASSAY_METHOD_TEXT: qHTS for Inhibitors of TGF-b: Cytotox Counterscreen
- APPLIED_CONDITIONS: HepG2 CAGA-GFP viability, ATP luminescence, 18 h; series mostly up to 46.1 µM
Among all 410,000 compounds or so, about 3,100 (0.76%) were called active. Calls follow the shape of the dose curve; as a rule, active = well fitted cell-killing curve with a large enough effect; inactive = no such curve, though single readings can be large or run the other way. For the sample, actives were picked, then their nearest neighbours and some compounds at random.
Outcomes: active, inactive

COMPOUND	LABEL_VALUE
COc1ccc(-c2nc3ccc(C(=O)NCc4ccc(C)cc4)cc3nc2-c2ccc(OC)cc2)cc1	inactive
COc1ccc(C(=O)Nc2cccc(C(=O)OCc3cc(=O)n4c5c(sc4n3)CCCC5)c2)cc1	inactive
CCOc1ccc(OCC)c(NC(=O)c2cc(C)nc3c2c(C)nn3-c2cccc(Cl)c2C)c1	inactive
Cc1c(Cl)cccc1NC(=O)CSc1ccc(-c2cccnc2)nn1	inactive
COC(=O)c1cc(C)sc1NC(=O)CC1Nc2ccccc2NC1=O (configuration not stated)	inactive
COCCn1c(SCC(=O)Nc2nc(C)cs2)nnc1C(C)C	active
Brc1ccc2c(c1)NC(c1cccnc1)=NC(c1ccccc1)=N2	inactive
S=c1[nH]c(=S)c2n[nH]nc2[nH]1	inactive
COc1ccc2c(c1)c(=O)c(C(=O)c1ccccc1)cn2CC(=O)Nc1ccc2c(c1)OCCO2	inactive
COc1ccc(CCNC(=O)c2cc(=O)c3c(C)cc(C)cc3o2)cc1OC	inactive
O=C(O)C1CCC(CNS(=O)(=O)c2ccc(Br)cc2)CC1 (configuration not stated)	active
Cc1ccc(-c2cn3c(n2)sc2cc(C(=O)NCc4cccs4)ccc23)c(C)c1	inactive
Nc1ccccc1N	inactive
CC1=C/C(=N\OS(=O)(=O)c2ccccc2)C=CC1=O	active
CCOC(=O)c1c(NC(=O)C(C)Sc2c[nH]c3ccccc23)sc2c1CCC2 (configuration not stated)	active
O=C1COc2ccc(-c3csc(-c4ccc(Cl)cc4)n3)cc2N1	inactive
O=C(CC1Nc2ccccc2NC1=O)Nc1ccccc1 (configuration not stated)	active

----------
- ASSAY_METHOD_TEXT: qHTS for Inhibitors of TGF-b: Cytotox Counterscreen; also: potency is read from the fitted curve at half-maximal effect
- APPLIED_CONDITIONS: HepG2 CAGA-GFP viability, ATP luminescence, 18 h; series mostly up to 46.1 µM
Hit rate of the full screen: of about 410,000 compounds, about 3,100 (0.76%) were called active. Only a selection was taken, and actives are over-represented in it overall.

COMPOUND	Potency
CCOC(=O)c1c(NC(=O)C2CCN(S(=O)(=O)c3ccc(Cl)cc3)CC2)sc2c1CCCC2	inactive
Cc1nc2c(OCc3cccc(Cl)c3)cccn2c1N(C)CC1CC1	inactive
O=C(/C=C/c1ccccc1)Nc1cc(-c2nc3cc(Cl)ccc3o2)ccc1Cl	inactive
O=c1cc(-c2ccccc2)n2c(SCc3ccccc3)nnc2[nH]1	inactive
O=C(Nc1ccc(Cl)cc1)c1cnn2c1NC(=C1CC1)C=C2C(F)F	inactive
O=C1OC(C(=O)Nc2cccc(Br)c2)Cc2ccccc21 (configuration not stated)	inactive
Cc1nc2c(OCc3ccc(Cl)cc3Cl)cccn2c1N(C)CC1CC1	11.2 µM (active)
Cc1nn(Cc2ccc(F)cc2)c(C)c1NC(=O)c1cc(CC(C)C)on1	inactive
Cc1cc(C)cc(Nc2ncnc3onc(-c4ccc(F)cc4)c23)c1	inactive
COc1ccc(C(=O)Nc2ccccc2C(=O)N/N=C/c2ccc(O)c(OC)c2)cc1	3.55 µM (active)
COc1ccc(N2CCN(c3nc(-c4ccccc4F)nc4ccccc34)CC2)cc1	inactive
CC(C)S(=O)(=O)c1oc(-c2ccc(F)cc2)nc1S(=O)(=O)c1ccc(F)cc1	2 µM (active)
